Attribution: ChEMBL document CHEMBL1153967

# System: HCT-116
# MEASUREMENT_NOTES: Growth inhibition of human HCT116 cells after 48 hrs
# Format: functional
# CONDITION_CONTEXT: HCT-116, 48 h
PARAMETER_MEASURED: GI50 (µM)

INPUT_SMILES | DISPLAY_UNIT | GI50
COc1cc(Nc2cc(C(F)(F)F)nc(-c3cccnc3)n2)cc(OC)c1 | µM | 1.3
COc1ccc(OC)c(Nc2cc(C(F)(F)F)nc(-c3cccnc3)n2)c1 | µM | 0.18

[A] COc1ccc(OC)c(Nc2cc(-c3ccccn3)nc(-c3ccccn3)n2)c1
[B] COc1cc(Nc2cc(C(F)(F)F)nc(-c3ccncc3)n2)cc(OC)c1
Task: Just curious, which one has the larger GI50 reading, A or B ? Return value: the label identifying the chosen record.
Output: B

* * *

# System: T47D
# MEASUREMENT_NOTES: Induction of apoptosis in human T47D cells assessed as caspase activation after 48 hrs by HTS assay
# Assay type: functional, cell-based
PARAMETER_MEASURED: EC50 (nM)

INPUT_SMILES | DISPLAY_UNIT | EC50
Cc1ccc(O)cc1Nc1cc(C(F)(F)F)nc(-c2cnccn2)n1 | nM | 190
COc1ccc(Cl)cc1Nc1cc(C(F)(F)F)nc(-c2cccnc2)n1 | nM | 360
Cc1ccc(C)c(Nc2cc(C(F)(F)F)nc(-c3ccncc3)n2)c1 | nM | 120
COc1ccc(C)c(Nc2cc(C(F)(F)F)nc(-c3ccncc3)n2)c1 | nM | 25
COc1ccc(Oc2ccccc2)cc1Nc1cc(C(F)(F)F)nc(-c2cccnc2)n1 | nM | 1500
Oc1ccc(Cl)c(Nc2cc(C(F)(F)F)nc(-c3cccnc3)n2)c1 | nM | 230
COc1cccc(Nc2cc(C(F)(F)F)nc(-c3ccncc3)n2)c1 | nM | 1300
Oc1cccc(Nc2cc(C(F)(F)F)nc(-c3ccncc3)n2)c1 | nM | 680
COc1ccc(OC)c(Nc2cc(C(F)(F)F)nc(-c3cnccn3)n2)c1 | nM | 48
COc1ccc(OC)c(Nc2cc(-c3ccccn3)nc(-c3ccccn3)n2)c1 | nM | 420

[I] COc1ccc(Cl)c(Nc2cc(C(F)(F)F)nc(-c3ccncc3)n2)c1
[II] COc1cccc(Nc2cc(C(F)(F)F)nc(-c3cccnc3)n2)c1
[III] Cc1ccc(O)cc1Nc1cc(C(F)(F)F)nc(-c2ccncc2)n1
Task: Sort by EC50, descending. In your reply, arrange the labels in the requested order.
Output: II, I, III
(II: 340 nM, I: 100 nM, III: 48 nM)

[1] COc1ccc(C)cc1Nc1cc(C(F)(F)F)nc(-c2ccncc2)n1
[2] COc1ccc(Cl)c(Nc2cc(C(F)(F)F)nc(-c3cccnc3)n2)c1
Task: Looking only at measured EC50, which entry is lower, 1 or 2 ? Return value: the label identifying the chosen record.
Output: 1

[P] Cc1ccc(O)cc1Nc1cc(C(F)(F)F)nc(-c2cccnc2)n1
[Q] COc1ccc(OC)c(Nc2cc(C(F)(F)F)nc(-c3ccccn3)n2)c1
[R] COc1cc(Nc2cc(C(F)(F)F)nc(-c3cnccn3)n2)cc(OC)c1
Task: Put the compounds in ascending order of EC50. In your reply, arrange the labels in the requested order.
Output: Q, P, R

[a] Oc1ccc(Cl)c(Nc2cc(C(F)(F)F)nc(-c3ccncc3)n2)c1
[b] COc1cccc(Nc2cc(C(F)(F)F)nc(-c3ccccn3)n2)c1
[c] Oc1ccc(Cl)c(Nc2cc(C(F)(F)F)nc(-c3cnccn3)n2)c1
[d] Oc1cccc(Nc2cc(C(F)(F)F)nc(-c3cccnc3)n2)c1
[e] COc1cc(Nc2cc(C(F)(F)F)nc(-c3ccncc3)n2)cc(OC)c1
Task: Sort by EC50, descending. In your reply, arrange the labels in the requested order.
Output: d, c, b, a, e
(d: 970 nM, c: 560 nM, b: 360 nM, a: 77 nM, e: 34 nM)

[1] COc1ccc(C)cc1Nc1cc(C(F)(F)F)nc(-c2cccnc2)n1
[2] COc1ccc(OC)c(Nc2cc(C(F)(F)F)nc(-c3cccnc3)n2)c1
Task: Just curious, which one has the larger EC50 reading, 1 or 2 ? Return value: the label identifying the chosen record.
Output: 1
